The values you see were collected from paper PMC11253567.

Kindly state SI (CC50/IC50) for each of the entries shown.
# Test system: SARS-CoV-2 (hCoV-19/Egypt/NRC-03/2020)
# Method: Inhibitory concentration 50 (IC50) determination, crystal violet CPE assay in VERO-E6 cells
# Experimental parameters: SI = CC50/IC50
Give bare numbers.

Some entries whose results are on file:
>  <Structure as smiles>
CCOC(=O)c1cnn2c(-c3ccc(Br)cc3)nc(NCc3ccccc3)nc12

>  <SI (CC50/IC50)>
39.7

$$$$
>  <Structure as smiles>
O=C(NCc1ccccc1)c1cnn2c(-c3ccccc3)nc(NCc3ccccc3)nc12

>  <SI (CC50/IC50)>
7.2

$$$$
>  <Structure as smiles>
O=C(NCCc1ccccc1)c1cnn2c(-c3ccccc3)nc(NCCc3ccccc3)nc12

>  <SI (CC50/IC50)>
13.0

$$$$
>  <Structure as smiles>
CCOC(=O)c1cnn2c(-c3ccc(Br)cc3)nc(N3CCCC3)nc12

>  <SI (CC50/IC50)>
10.6

$$$$
>  <Structure as smiles>
O=C(NCCc1ccccc1)c1cnn2c(-c3ccc(Cl)cc3)nc(NCCc3ccccc3)nc12

>  <SI (CC50/IC50)>
5.6

$$$$

// for each compound below, give its SI (CC50/IC50)
1. CCOC(=O)c1cnn2c(-c3ccc(Cl)cc3)nc(N3CCCCC3)nc12
2. CCOC(=O)c1cnn2c(-c3ccccc3)nc(N3CCCCC3)nc12
3. CCOC(=O)c1cnn2c(-c3ccc(Cl)cc3)nc(NCc3ccccc3)nc12
4. CCOC(=O)c1cnn2c(-c3ccccc3)nc(NCCc3ccccc3)nc12

Output:
31.2
5.9
4.9
2.5
